Recorded MIC S. epidermidis 12228 for the following molecules
System: S. epidermidis 12228
Type: cell-based, Staphylococcus epidermidis
Conditions: 12228, 24 h
Where a SMILES comes first, the peptide text is derived from it.
State the answer as a number, implicitly in μ M.

N=C(N)NCCC[C@H](NC(=O)[C@H](CCCNC(=N)N)NC(=O)[C@H](Cc1c[nH]c2ccccc12)NC(=O)[C@H](Cc1ccc(O)cc1)NC(=O)[C@H](Cc1c[nH]c2ccccc12)NC(=O)[C@H](Cc1c[nH]c2ccccc12)NC(=O)[C@H](Cc1c[nH]c2ccccc12)NC(=O)[C@H](Cc1ccc(O)cc1)NC(=O)[C@H](Cc1c[nH]c2ccccc12)NC(=O)[C@H](CCCNC(=N)N)NC(=O)[C@@H](N)CCCNC(=N)N)C(N)=O [Peptide S2] (H-RRWYWWWYWRR-NH2) :: 8

Incoming: Give MIC S. epidermidis 12228 for N=C(N)NCCC[C@H](NC(=O)[C@H](CCCNC(=N)N)NC(=O)[C@H](Cc1c[nH]c2ccccc12)NC(=O)[C@H](CS)NC(=O)[C@H](Cc1c[nH]c2ccccc12)NC(=O)[C@H](Cc1c[nH]c2ccccc12)NC(=O)[C@H](Cc1c[nH]c2ccccc12)NC(=O)[C@H](CS)NC(=O)[C@H](Cc1c[nH]c2ccccc12)NC(=O)[C@H](CCCNC(=N)N)NC(=O)[C@@H](N)CCCNC(=N)N)C(N)=O [Peptide S1] (H-RRWCWWWCWRR-NH2; N-terminus assumed)
Outgoing: 8

---

Recorded MIC S. aureus 29213 for the following compounds
Tested on: S. aureus 29213
Type: cell-based, Staphylococcus aureus
Conditions: 29213, 24 h
Where a SMILES comes first, the peptide text is derived from it.
State the answer as a number, implicitly in μ M.

Incoming: Give MIC S. aureus 29213 for N=C(N)NCCC[C@H](NC(=O)[C@H](CCCNC(=N)N)NC(=O)[C@H](Cc1c[nH]c2ccccc12)NC(=O)[C@H](CO)NC(=O)[C@H](Cc1c[nH]c2ccccc12)NC(=O)[C@H](Cc1c[nH]c2ccccc12)NC(=O)[C@H](Cc1c[nH]c2ccccc12)NC(=O)[C@H](CO)NC(=O)[C@H](Cc1c[nH]c2ccccc12)NC(=O)[C@H](CCCNC(=N)N)NC(=O)[C@@H](N)CCCNC(=N)N)C(N)=O [Peptide S7] (H-RRWSWWWSWRR-NH2)
Outgoing: 4

Incoming: Give MIC S. aureus 29213 for C[C@@H](O)[C@H](NC(=O)[C@H](Cc1c[nH]c2ccccc12)NC(=O)[C@H](Cc1c[nH]c2ccccc12)NC(=O)[C@H](Cc1c[nH]c2ccccc12)NC(=O)[C@@H](NC(=O)[C@H](Cc1c[nH]c2ccccc12)NC(=O)[C@H](CCCNC(=N)N)NC(=O)[C@@H](N)CCCNC(=N)N)[C@@H](C)O)C(=O)N[C@@H](Cc1c[nH]c2ccccc12)C(=O)N[C@@H](CCCNC(=N)N)C(=O)N[C@@H](CCCNC(=N)N)C(N)=O [Peptide S5] (H-RRWTWWWTWRR-NH2)
Outgoing: 1

Incoming: Give MIC S. aureus 29213 for N=C(N)NCCC[C@H](NC(=O)[C@H](CCCNC(=N)N)NC(=O)[C@H](Cc1c[nH]c2ccccc12)NC(=O)[C@H](CCC(N)=O)NC(=O)[C@H](Cc1c[nH]c2ccccc12)NC(=O)[C@H](Cc1c[nH]c2ccccc12)NC(=O)[C@H](Cc1c[nH]c2ccccc12)NC(=O)[C@H](CCC(N)=O)NC(=O)[C@H](Cc1c[nH]c2ccccc12)NC(=O)[C@H](CCCNC(=N)N)NC(=O)[C@@H](N)CCCNC(=N)N)C(N)=O [Peptide S4] (H-RRWQWWWQWRR-NH2)
Outgoing: 4

Incoming: Give MIC S. aureus 29213 for N=C(N)NCCC[C@H](NC(=O)[C@H](CCCNC(=N)N)NC(=O)[C@H](Cc1c[nH]c2ccccc12)NC(=O)CNC(=O)[C@H](Cc1c[nH]c2ccccc12)NC(=O)[C@H](Cc1c[nH]c2ccccc12)NC(=O)[C@H](Cc1c[nH]c2ccccc12)NC(=O)CNC(=O)[C@H](Cc1c[nH]c2ccccc12)NC(=O)[C@H](CCCNC(=N)N)NC(=O)[C@@H](N)CCCNC(=N)N)C(N)=O [Peptide S6] (H-RRWGWWWGWRR-NH2)
Outgoing: 16

Incoming: Give MIC S. aureus 29213 for N=C(N)NCCC[C@H](NC(=O)[C@H](CCCNC(=N)N)NC(=O)[C@H](Cc1c[nH]c2ccccc12)NC(=O)[C@H](Cc1ccc(O)cc1)NC(=O)[C@H](Cc1c[nH]c2ccccc12)NC(=O)[C@H](Cc1c[nH]c2ccccc12)NC(=O)[C@H](Cc1c[nH]c2ccccc12)NC(=O)[C@H](Cc1ccc(O)cc1)NC(=O)[C@H](Cc1c[nH]c2ccccc12)NC(=O)[C@H](CCCNC(=N)N)NC(=O)[C@@H](N)CCCNC(=N)N)C(N)=O [Peptide S2] (H-RRWYWWWYWRR-NH2)
Outgoing: 8

Incoming: Give MIC S. aureus 29213 for N=C(N)NCCC[C@H](NC(=O)[C@H](CCCNC(=N)N)NC(=O)[C@H](Cc1c[nH]c2ccccc12)NC(=O)[C@H](CS)NC(=O)[C@H](Cc1c[nH]c2ccccc12)NC(=O)[C@H](Cc1c[nH]c2ccccc12)NC(=O)[C@H](Cc1c[nH]c2ccccc12)NC(=O)[C@H](CS)NC(=O)[C@H](Cc1c[nH]c2ccccc12)NC(=O)[C@H](CCCNC(=N)N)NC(=O)[C@@H](N)CCCNC(=N)N)C(N)=O [Peptide S1] (H-RRWCWWWCWRR-NH2; N-terminus assumed)
Outgoing: 8

---

Tested on: E. coli 25922
Type: cell-based, Escherichia coli
Details: 25922, 24 h
Where a SMILES comes first, the peptide text is derived from it.
assay_endpoint: MIC E. coli 25922

Incoming: Give MIC E. coli 25922 for N=C(N)NCCC[C@H](NC(=O)[C@H](CCCNC(=N)N)NC(=O)[C@H](Cc1c[nH]c2ccccc12)NC(=O)[C@H](CC(N)=O)NC(=O)[C@H](Cc1c[nH]c2ccccc12)NC(=O)[C@H](Cc1c[nH]c2ccccc12)NC(=O)[C@H](Cc1c[nH]c2ccccc12)NC(=O)[C@H](CC(N)=O)NC(=O)[C@H](Cc1c[nH]c2ccccc12)NC(=O)[C@H](CCCNC(=N)N)NC(=O)[C@@H](N)CCCNC(=N)N)C(N)=O [Peptide S3] (H-RRWNWWWNWRR-NH2)
Outgoing: >64 μ M

Incoming: Give MIC E. coli 25922 for N=C(N)NCCC[C@H](NC(=O)[C@H](CCCNC(=N)N)NC(=O)[C@H](Cc1c[nH]c2ccccc12)NC(=O)[C@H](CS)NC(=O)[C@H](Cc1c[nH]c2ccccc12)NC(=O)[C@H](Cc1c[nH]c2ccccc12)NC(=O)[C@H](Cc1c[nH]c2ccccc12)NC(=O)[C@H](CS)NC(=O)[C@H](Cc1c[nH]c2ccccc12)NC(=O)[C@H](CCCNC(=N)N)NC(=O)[C@@H](N)CCCNC(=N)N)C(N)=O [Peptide S1] (H-RRWCWWWCWRR-NH2; N-terminus assumed)
Outgoing: >64 μ M

Incoming: Give MIC E. coli 25922 for N=C(N)NCCC[C@H](NC(=O)[C@H](CCCNC(=N)N)NC(=O)[C@H](Cc1c[nH]c2ccccc12)NC(=O)[C@H](Cc1ccc(O)cc1)NC(=O)[C@H](Cc1c[nH]c2ccccc12)NC(=O)[C@H](Cc1c[nH]c2ccccc12)NC(=O)[C@H](Cc1c[nH]c2ccccc12)NC(=O)[C@H](Cc1ccc(O)cc1)NC(=O)[C@H](Cc1c[nH]c2ccccc12)NC(=O)[C@H](CCCNC(=N)N)NC(=O)[C@@H](N)CCCNC(=N)N)C(N)=O [Peptide S2] (H-RRWYWWWYWRR-NH2)
Outgoing: 32 μ M

---

Tested on: S. epidermidis 12228
Format: cell-based, Staphylococcus epidermidis
Conditions: 12228, 24 h
Where a SMILES comes first, the peptide text is derived from it.
assay_endpoint: MIC S. epidermidis 12228

N=C(N)NCCC[C@H](NC(=O)[C@H](CCCNC(=N)N)NC(=O)[C@H](Cc1c[nH]c2ccccc12)NC(=O)[C@H](CCC(N)=O)NC(=O)[C@H](Cc1c[nH]c2ccccc12)NC(=O)[C@H](Cc1c[nH]c2ccccc12)NC(=O)[C@H](Cc1c[nH]c2ccccc12)NC(=O)[C@H](CCC(N)=O)NC(=O)[C@H](Cc1c[nH]c2ccccc12)NC(=O)[C@H](CCCNC(=N)N)NC(=O)[C@@H](N)CCCNC(=N)N)C(N)=O [Peptide S4] (H-RRWQWWWQWRR-NH2) :: 4 μ M

Incoming: Give MIC S. epidermidis 12228 for N=C(N)NCCC[C@H](NC(=O)[C@H](CCCNC(=N)N)NC(=O)[C@H](Cc1c[nH]c2ccccc12)NC(=O)[C@H](CC(N)=O)NC(=O)[C@H](Cc1c[nH]c2ccccc12)NC(=O)[C@H](Cc1c[nH]c2ccccc12)NC(=O)[C@H](Cc1c[nH]c2ccccc12)NC(=O)[C@H](CC(N)=O)NC(=O)[C@H](Cc1c[nH]c2ccccc12)NC(=O)[C@H](CCCNC(=N)N)NC(=O)[C@@H](N)CCCNC(=N)N)C(N)=O [Peptide S3] (H-RRWNWWWNWRR-NH2)
Outgoing: >64 μ M

Incoming: Give MIC S. epidermidis 12228 for C[C@@H](O)[C@H](NC(=O)[C@H](Cc1c[nH]c2ccccc12)NC(=O)[C@H](Cc1c[nH]c2ccccc12)NC(=O)[C@H](Cc1c[nH]c2ccccc12)NC(=O)[C@@H](NC(=O)[C@H](Cc1c[nH]c2ccccc12)NC(=O)[C@H](CCCNC(=N)N)NC(=O)[C@@H](N)CCCNC(=N)N)[C@@H](C)O)C(=O)N[C@@H](Cc1c[nH]c2ccccc12)C(=O)N[C@@H](CCCNC(=N)N)C(=O)N[C@@H](CCCNC(=N)N)C(N)=O [Peptide S5] (H-RRWTWWWTWRR-NH2)
Outgoing: 2 μ M

Incoming: Give MIC S. epidermidis 12228 for N=C(N)NCCC[C@H](NC(=O)[C@H](CCCNC(=N)N)NC(=O)[C@H](Cc1c[nH]c2ccccc12)NC(=O)CNC(=O)[C@H](Cc1c[nH]c2ccccc12)NC(=O)[C@H](Cc1c[nH]c2ccccc12)NC(=O)[C@H](Cc1c[nH]c2ccccc12)NC(=O)CNC(=O)[C@H](Cc1c[nH]c2ccccc12)NC(=O)[C@H](CCCNC(=N)N)NC(=O)[C@@H](N)CCCNC(=N)N)C(N)=O [Peptide S6] (H-RRWGWWWGWRR-NH2)
Outgoing: >64 μ M

Incoming: Give MIC S. epidermidis 12228 for N=C(N)NCCC[C@H](NC(=O)[C@H](CCCNC(=N)N)NC(=O)[C@H](Cc1c[nH]c2ccccc12)NC(=O)[C@H](CO)NC(=O)[C@H](Cc1c[nH]c2ccccc12)NC(=O)[C@H](Cc1c[nH]c2ccccc12)NC(=O)[C@H](Cc1c[nH]c2ccccc12)NC(=O)[C@H](CO)NC(=O)[C@H](Cc1c[nH]c2ccccc12)NC(=O)[C@H](CCCNC(=N)N)NC(=O)[C@@H](N)CCCNC(=N)N)C(N)=O [Peptide S7] (H-RRWSWWWSWRR-NH2)
Outgoing: 4 μ M
